Hello, the source for this data is ChEMBL document CHEMBL5331042, in case you need it.

- system under test: Mushroom tyrosinase (Agaricus bisporus, UniProt O42713+Q00024+C7FF04+C7FF05)
- assay comment: Inhibition of mushroom tyrosinase using L-DOPA as substrate preincubated for 20 mins followed by substrate addition by absorbance based analysis
Could you please mark Fulfilled for values of IC50 below 400 nM and Not fulfilled for values at or above it?

[[record]]
smiles_string = "Cc1c(Cl)cccc1NC(=O)Cn1cc(COc2ccc(/C=N/NC(N)=S)cc2)nn1"
label_value = "Fulfilled"

[[record]]
smiles_string = "NC(=S)N/N=C/c1ccc(OCc2cn(CC(=O)Nc3ccccc3)nn2)cc1"
label_value = "Not fulfilled"

[[record]]
smiles_string = "NC(=S)N/N=C/c1ccc(OCc2cn(CC(=O)Nc3cccc(Cl)c3Cl)nn2)cc1"
label_value = "Not fulfilled"


Below 400 nM on IC50? Entry NC(=S)N/N=C/c1ccc(OCc2cn(CC(=O)Nc3ccc(F)cc3)nn2)cc1
Not fulfilled

Below 400 nM on IC50? Entry NC(=S)N/N=C/c1ccc(OCc2cn(CC(=O)NCc3ccc(F)cc3)nn2)cc1
Not fulfilled

* * *

- system under test: Mushroom tyrosinase (Agaricus bisporus, UniProt O42713+Q00024+C7FF04+C7FF05)
- assay comment: Inhibition of mushroom tyrosinase using L-DOPA as substrate preincubated for 10 mins followed by substrate addition and measured after 20 mins by absorbance based analysis
measurement label: IC50 (nM)
Numbers only, in nM.

In the examples that follow, each entry is paired with its recorded IC50.
[[record]]
compound = "Cc1cccc(C)c1NC(=O)CSc1nnc(Cc2csc(N)n2)n1-c1ccccc1"
display_unit = "nM"
result_number = 51

[[record]]
compound = "COc1ccc(OCc2cn(CC3=CC(=O)C(O)=CC3=O)nn2)cc1"
display_unit = "nM"
result_number = 1240

[[record]]
compound = "O=C1OC(c2ccc(Cl)cc2Cl)=NC(=S)C1c1nn[nH]n1 (centres undefined)"
display_unit = "nM"
result_number = 47


# next compound below
State recorded IC50 with Mushroom tyrosinase (Agaricus bisporus, UniProt O42713+Q00024+C7FF04+C7FF05), entry O=C1C=C(Cn2cc(COc3cccc(Cl)c3)nn2)C(=O)C=C1O , no comment.
990

* * *

- system under test: Mushroom tyrosinase (Agaricus bisporus, UniProt O42713+Q00024+C7FF04+C7FF05)
- assay comment: Inhibition of mushroom tyrosinase using L-DOPA as substrate preincubated for 10 mins followed by substrate addition and measured after 20 mins by absorbance based analysis
measurement label: log10 IC50 (log10 of the value in nM)
log10 IC50, nM

[[record]]
compound = "CC(=O)Nc1ccc(OCc2cn(CC3=CC(=O)C(O)=CC3=O)nn2)cc1"
system_under_test = "Mushroom tyrosinase (Agaricus bisporus, UniProt O42713+Q00024+C7FF04+C7FF05)"
result_number = 3.42


State the recorded log10 IC50 for every item in the following list.
1. CCOc1ccc(NC(=O)CSc2nnc(Cc3csc(N)n3)n2-c2ccccc2)cc1
2. O=C1OC(c2ccccc2Br)=NC(=S)C1c1nn[nH]n1 (stereo not given)
3. O=C1OC(c2cc([N+](=O)[O-])cc([N+](=O)[O-])c2)=NC(=S)C1c1nn[nH]n1 (stereo not given)
4. Cc1ccc(NC(=O)CSc2nnc(Cc3csc(N)n3)n2-c2ccccc2)cc1C

[2.23, 1.57, 1.88, 2.04]

* * *

- system under test: Mushroom tyrosinase (Agaricus bisporus, UniProt O42713+Q00024+C7FF04+C7FF05)
- assay comment: Inhibition of mushroom tyrosinase incubated for 10 mins by spectrophotometric analysis
measurement label: IC50

In the examples that follow, each entry is paired with its recorded IC50.
[[record]]
smiles_string = "CCCCCn1nc(-c2ccccc2)n(CC(=O)NNC(=O)Nc2ccccc2C(F)(F)F)c1=O"
measurement_label = "IC50"
result = "0.00166 µM"

[[record]]
smiles_string = "CCCCCn1nc(-c2ccccc2)n(CC(=O)NNC(=S)Nc2ccccc2Br)c1=O"
measurement_label = "IC50"
result = "> 20 µM"

[[record]]
smiles_string = "CCCCCn1nc(-c2ccccc2)n(CC(=O)NNC(=O)Nc2ccc(Br)cc2)c1=O"
measurement_label = "IC50"
result = "> 20 µM"

[[record]]
smiles_string = "CCCCCn1nc(-c2ccccc2)n(CC(=O)NNC(=S)Nc2ccc(C(F)(F)F)cc2)c1=O"
measurement_label = "IC50"
result = "1.49 µM"


State the recorded IC50 for every item in the following list.
1. CCCCCn1nc(-c2ccccc2)n(CC(=O)NNC(=O)Nc2cccc(C(F)(F)F)c2)c1=O
2. CCCCCn1nc(-c2ccccc2)n(CC(=O)NNC(=S)Nc2cccc(Cl)c2)c1=O
3. CCCCCn1nc(-c2ccccc2)n(CC(=O)NNC(=S)Nc2ccc(Cl)cc2)c1=O

1. 0.00165 µM
2. 5.4 µM
3. 0.19 µM

* * *

- system under test: Mushroom tyrosinase (Agaricus bisporus, UniProt O42713+Q00024+C7FF04+C7FF05)
- assay comment: Inhibition of mushroom tyrosinase using L-DOPA as substrate preincubated for 10 mins followed by substrate addition and measured after 20 mins
measurement label: IC50 (nM)
One number for each entry, in nM.

In the examples that follow, each entry is paired with its recorded IC50.
[[record]]
smiles_string = "CCCCn1c(SCC(=O)Nc2ccc(I)cc2)nnc1-c1ccccc1"
result_number = 210

[[record]]
smiles_string = "CCCCn1c(SCC(=O)Nc2ccc(Br)cc2)nnc1-c1ccccc1"
result_number = 340

[[record]]
smiles_string = "COc1ccccc1-n1c(SCC(=O)Nc2ccc(F)cc2)nnc1-c1ccccc1F"
result_number = 170

[[record]]
smiles_string = "COc1ccccc1-n1c(SCC(=O)Nc2ccc(F)cc2)nnc1-c1ccccc1"
result_number = 80

[[record]]
smiles_string = "COc1ccccc1-n1c(SCC(=O)Nc2ccccc2)nnc1-c1ccccc1F"
result_number = 540


State the recorded IC50 for every item in the following list.
1. CCCCn1c(SCC(=O)Nc2ccccc2)nnc1-c1ccccc1
2. COc1ccccc1-n1c(SCC(=O)Nc2ccccc2)nnc1-c1ccccc1

1. 210
2. 20

* * *

- system under test: Mushroom tyrosinase (Agaricus bisporus, UniProt O42713+Q00024+C7FF04+C7FF05)
- assay comment: Inhibition of mushroom tyrosinase incubated for 10 mins by spectrophotometric analysis
measurement label: IC50

[[record]]
smiles_string = "CCCCCn1nc(-c2ccccc2)n(CC(=O)NNC(=S)Nc2ccc(Cl)cc2Cl)c1=O"
system_under_test = "Mushroom tyrosinase (Agaricus bisporus, UniProt O42713+Q00024+C7FF04+C7FF05)"
result = "> 20 µM"

[[record]]
smiles_string = "CCCCCn1nc(-c2ccccc2)n(CC(=O)NNC(=O)Nc2ccc(F)cc2)c1=O"
system_under_test = "Mushroom tyrosinase (Agaricus bisporus, UniProt O42713+Q00024+C7FF04+C7FF05)"
result = "> 20 µM"

[[record]]
smiles_string = "CCCCCn1nc(-c2ccccc2)n(CC(=O)NNC(=S)Nc2cccc(Br)c2)c1=O"
system_under_test = "Mushroom tyrosinase (Agaricus bisporus, UniProt O42713+Q00024+C7FF04+C7FF05)"
result = "> 20 µM"


State the recorded IC50 for every item in the following list.
1. CCCCCn1nc(-c2ccccc2)n(CC(=O)NNC(=S)Nc2cccc(F)c2)c1=O
2. CCCCCn1nc(-c2ccccc2)n(CC(=O)NNC(=O)Nc2cc(C(F)(F)F)cc(C(F)(F)F)c2)c1=O
3. CCCCCn1nc(-c2ccccc2)n(CC(=O)NNC(=O)Nc2ccc(C(F)(F)F)cc2)c1=O
4. CCCCCn1nc(-c2ccccc2)n(CC(=O)NNC(=S)Nc2cc(C(F)(F)F)cc(C(F)(F)F)c2)c1=O

1. 15.2 µM
2. 0.00197 µM
3. > 20 µM
4. > 20 µM

* * *

Exercise: for every item that follows, state its recorded log10 of IC50.
- system under test: Mushroom tyrosinase (Agaricus bisporus, UniProt O42713+Q00024+C7FF04+C7FF05)
- assay comment: Inhibition of mushroom tyrosinase
Peptide text beside a SMILES is read from it.
log10 IC50, nM

[[record]]
compound = "O=C1/C(=C/c2ccccc2O)OC(=S)N1c1ccccc1"
system_under_test = "Mushroom tyrosinase (Agaricus bisporus, UniProt O42713+Q00024+C7FF04+C7FF05)"
result_number = 4.05

[[record]]
compound = "CC(C)[C@@H]1NC(=O)[C@@H]2CCCN2C(=O)[C@H](Cc2ccc(O)cc2)NC(=O)[C@@H]2CCCN2C1=O (cyclo(PVPY))"
system_under_test = "Mushroom tyrosinase (Agaricus bisporus, UniProt O42713+Q00024+C7FF04+C7FF05)"
result_number = 2.78

[[record]]
compound = "CC(C)[C@H]1C(=O)N2CCC[C@H]2c2cn(nn2)[C@@H](Cc2ccc(O)cc2)C(=O)N2CCC[C@H]2c2cn1nn2"
system_under_test = "Mushroom tyrosinase (Agaricus bisporus, UniProt O42713+Q00024+C7FF04+C7FF05)"
result_number = 3.20


State the recorded log10 of IC50 for every item in the following list.
1. O=C1/C(=C/c2ccc(O)cc2O)OC(=S)N1c1ccccc1
2. CC(C)[C@@H]1NC(=O)[C@@H]2CCCN2C(=O)[C@H](Cc2ccc(O)cc2)n2cc(nn2)[C@@H]2CCCN2C1=O
3. CC(C)[C@H]1C(=O)N2CCC[C@H]2C(=O)N[C@@H](Cc2ccc(O)cc2)C(=O)N2CCC[C@H]2c2cn1nn2

3.67
2.70
3.18
